Target: IGF-1R (Homo sapiens)
Construct: expressed in transfected cells
Sequence (P08069 31-1367): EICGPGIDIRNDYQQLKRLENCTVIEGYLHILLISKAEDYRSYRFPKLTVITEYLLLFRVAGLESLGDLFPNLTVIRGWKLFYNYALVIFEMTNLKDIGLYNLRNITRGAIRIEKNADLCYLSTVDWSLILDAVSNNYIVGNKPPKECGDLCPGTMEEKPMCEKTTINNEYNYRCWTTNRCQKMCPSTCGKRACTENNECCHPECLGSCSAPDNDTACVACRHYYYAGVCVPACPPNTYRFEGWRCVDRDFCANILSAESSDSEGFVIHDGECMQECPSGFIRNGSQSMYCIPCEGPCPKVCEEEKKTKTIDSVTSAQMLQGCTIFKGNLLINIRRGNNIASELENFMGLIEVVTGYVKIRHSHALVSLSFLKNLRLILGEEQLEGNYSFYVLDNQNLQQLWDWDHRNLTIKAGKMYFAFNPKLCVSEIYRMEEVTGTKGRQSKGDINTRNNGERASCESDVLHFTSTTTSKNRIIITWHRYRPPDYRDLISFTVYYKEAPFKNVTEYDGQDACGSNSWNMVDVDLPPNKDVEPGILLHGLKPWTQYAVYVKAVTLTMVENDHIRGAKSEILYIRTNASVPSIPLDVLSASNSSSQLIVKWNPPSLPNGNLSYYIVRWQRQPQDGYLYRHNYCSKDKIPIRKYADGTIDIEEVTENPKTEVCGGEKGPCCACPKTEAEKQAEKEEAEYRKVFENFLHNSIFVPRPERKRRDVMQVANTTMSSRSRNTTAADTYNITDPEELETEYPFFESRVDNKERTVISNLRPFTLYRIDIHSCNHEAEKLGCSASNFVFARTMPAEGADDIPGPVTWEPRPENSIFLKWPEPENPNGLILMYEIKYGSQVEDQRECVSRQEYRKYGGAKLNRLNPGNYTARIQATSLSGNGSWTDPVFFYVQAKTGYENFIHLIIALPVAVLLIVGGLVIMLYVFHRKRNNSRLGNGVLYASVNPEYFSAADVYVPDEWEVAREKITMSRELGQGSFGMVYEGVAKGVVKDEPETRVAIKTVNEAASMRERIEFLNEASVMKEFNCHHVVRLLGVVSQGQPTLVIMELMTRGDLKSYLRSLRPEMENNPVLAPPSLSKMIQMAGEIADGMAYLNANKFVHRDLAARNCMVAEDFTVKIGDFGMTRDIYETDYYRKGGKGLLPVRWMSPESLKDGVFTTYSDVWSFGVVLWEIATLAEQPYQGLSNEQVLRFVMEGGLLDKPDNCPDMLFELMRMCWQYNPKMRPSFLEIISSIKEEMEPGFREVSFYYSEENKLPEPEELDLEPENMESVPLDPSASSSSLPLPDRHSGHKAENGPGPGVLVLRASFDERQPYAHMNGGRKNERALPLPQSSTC
Assay: Example B-1: IGF-1R Assay (PC3 cells stimulated with IGF1, AlphaLISA on cell lysates)
Format: cell-based
Settings: compound two hours, IGF1 200 ng/mL for 30 min, read-out: IC50, Biological Activity against IGF-1R (Table B1)
endpoint: IC50

Check out these entries, answers already filled in.
[[record]]
compound = "CNC(=O)Nc1cc(CN2C(=O)N(c3ccc(SC(F)(F)F)cc3)C(=O)C2(C)C)ccn1"
target_under_test = "IGF-1R (Homo sapiens)"
observed_measurement = "≤ 500 nM"

[[record]]
compound = "CC(C)Nc1cc(CN2C(=O)N(c3ccc(SC(F)(F)F)cc3)C(=O)C2(C)CO)ccn1 (stereo not drawn)"
target_under_test = "IGF-1R (Homo sapiens)"
observed_measurement = "2000 to 10000 nM"


Entry "CC1(C)C(=O)N(c2ccc(SC(F)(F)F)cc2)C(=O)N1Cc1ccnc(NC2CCCC2)c1" has what IC50?
≤ 500 nM

What do we get for CC1(C)CC(Nc2cc(CN3C(=O)N(c4ccc(C5(C(F)(F)F)CC5)cc4)C(=O)C3(C)C)ccn2)CCO1 (stereo not drawn) ?
≤ 500 nM

What do we get for CC(C)Nc1cc(CN2C(=O)N(c3ccc(C4(C)CC4(F)F)cc3)C(=O)C2(C)C)ccn1 (stereo not drawn) ?
≤ 500 nM

What do we get for "CC(C)Nc1cc(CN2C(=O)N(c3ccc(C4(C#N)CCCC4)cc3)C(=O)C2(C)C)ccn1" ?
≤ 500 nM

What do we get for "CC(C)(C)c1ccc(N2C(=O)N(Cc3ccnc4[nH]cc(Cl)c34)C(C)(C)C2=O)cc1" ?
≤ 500 nM
